Would you kindly list IC50 (ug/ml), neutralization for each of these binders?
Biological target: HIV-1 JR-CSF Env, wild type (pseudovirus) (HIV-1 JR-CSF) (UniProt P20871)
Assay: cell-based or functional assay
Record the value in µg/mL, omitting the unit from your answer.

Lookup result for 1456_A12 (PG16) (TCN-117) (antibody, V domains shown) VH: HEQLVEAGGGVVQPGGSLRLSCLASGFTFHKYGMHWVRQAPGKGLEWVALISDDGMRKYHSDSMWGRVTISRDNSKNTLYLQFSSLRVEDTAMFFCAREAGGPIWHDDVKYYDFNDGYYNYHYMDVWGKGTKVTVSS VL: QSALTQPASVSGSPGQTITISCNGTSRDVGGFDSVSWYQQSPGKAPKVMVFDVSHRPSGMSNRFSGSKSGNTASLTISGLHIEDEGDYFCSSLTDRSHRIFGGGTKLTVLG ; measured IC50 (ug/ml), neutralization: 0.001

For reference, reported IC50 (ug/ml), neutralization for 1489_I13 (PG16) (TCN-120) (antibody, V domains shown) VH: QEQLLESGGGVVQPGGSLRLSCLASGFTFHKYGMHWVRQAPGKGLEWVALISDDGMRKYHSNSMWGRVTISRDNSKNTLYLQFSSLKVEDTAMFFCAREAGGPIWHDDVKYYDFNDGYYNYHYMDVWGKGTTVTVSS VL: QSALTQPASVSGSPGQTITISCNGTSSDVGGFDSVSWYQQSPGKAPKVMVFDVSHRPSGISNRFSGSKSGNTASLTISGLHIEDEGDYFCSSLTDRSHRIFGGGTKVTVLG stands at 0.002

For reference, reported IC50 (ug/ml), neutralization for 1503_H05 (PG16) (TCN-119) (antibody, V domains shown) VH: QEKLVESGGGVVQPGGSLRLSCLASGFTFHKYGMHWVRQAPGKGLEWVALISDDGMRKYHSDSMWGRVTISRDNSKNTLYLQFSSLKVEDTAMFFCAREAGGPIWHDDVKYYDFNDGYYNYHYMDVWGKGTIVTVSS VL: QSALTQPASVSGSPGQTITISCNGTRSDVGGFDSVSWYQQSPGKAPKVMVFDVSHRPSGISNRFSGSKSGNTASLTISGLHIEDEGDYFCSSLTDRSHRIFGGGTKVTVLG stands at 0.001

For this binder ( 1469_M23 (PG16) (TCN-118) (antibody, V domains shown) VH: QEKLVESGGGVVQPGGSLRLSCLASGFTFHKYGMHWVRQAPGKGLEWVALISDDGMRKYHSDSMWGRVTISRDNSKNTLYLQFSSLKVEDTAMFFCAREAGGPIWHDDVKYYDFNDGYYNYHYMDVWGKGTTVTVSS VL: QSALTQPASVSGSPGQTITISCNGTRSDVGGFDSVSWYQQSPGRAPKVMVFDVSHRPSGISNRFSGSKSGNTASLTISGLHIEDEGDYFCSSLTDRSHRIFGGGTKLTVLG ), measured IC50 (ug/ml), neutralization is 0.002
